Tested on: MCF7 breast
Experiment: NCI-60 one-dose screen, 48 h (100 = growth as untreated, 0 = no growth, -100 = all killed)
Conditions: 10 µM unless noted
About 83,000 compounds went through this panel and 20% of them were active in at least one assay; those are over-represented in the sample as a whole.
Mark not met for growth values under 10%, and met for everything at or above.

Completed entries (count: 4):
> print(dat)
                                   compound  tested.target  qualitative.label
1  CNc1sc(S(=O)(=O)NC)nc1S(=O)(=O)c1ccc(C)cc1    MCF7 breast                met
2  O=C(CCCCCCNC(=O)C(O)(O)C(F)(F)F)Nc1ncc(-c2ccc(Br)cc2)s1    MCF7 breast            not met
3  CC(C)(O)c1cncc(-c2ccc3ncc(C#N)c(N4CCc5cc(F)c(Cl)cc54)c3c2)c1    MCF7 breast            not met
4  CNC(=O)c1cc(Oc2ccc3c(c2)sc2nc(-c4ccc(N(C)C)cc4)cn23)ccn1    MCF7 breast                met

QUERY: Check this compound for growth at or above 10%: `COc1cc(OC)cc(-c2cc(-c3c[nH]c4ccccc34)nc(-c3c[nH]c4ccccc34)c2C#N)c1`
RESULT: met

QUERY: I'd appreciate it if you could say whether `Cc1ccc(/C=N/Nc2nc(Nc3ccccc3)nc(Nc3ccc(S(N)(=O)=O)cc3)n2)cc1` has growth at least equal to 10%.
RESULT: met

QUERY: In plain terms: is recorded growth at least 10% for `Clc1ccc2[nH]cc(-c3nn4cc(-c5cccnc5)nc4s3)c2c1` ?
RESULT: met

QUERY: For this compound, is measured growth 10% or higher? `COc1ccc(-c2cc(-c3ccc(N(C)C)cc3)n3c(n2)nc2ccccc23)cc1`
RESULT: met

QUERY: Please indicate if the recorded growth for `COC(=O)c1cccc(NC2=C(Cl)C(=O)c3nc(C)ccc3C2=O)c1` meets or exceeds 10%.
RESULT: not met

QUERY: Quick check: does `COc1cc(C(C)=C(c2ccc(OCCN(C)C)cc2)c2ccc(OCCN(C)C)cc2)ccc1F` have growth greater than or equal to 10%?
RESULT: met

QUERY: Confirm if growth reported for the compound `CCOC(=O)c1c(NC(=O)c2cccc(C(F)(F)F)c2)sc2c1CCC(=O)C2` is 10% or above.
RESULT: met

QUERY: Threshold query (growth >= 10%) on `C=C(C)[C@@H]1CC[C@]2(C(=O)NC3CCCCC3)CC[C@]3(C)[C@H](CC[C@@H]4[C@@]5(C)CC[C@H](N)C(C)(C)[C@@H]5CC[C@]43C)[C@@H]12`
RESULT: met

QUERY: Exam item: decide whether the reported growth for `CCCc1[nH]c(-c2cc(N)ccc2Cl)c2c1C(=O)CCCC2` is at least 10%.
RESULT: met

QUERY: Quick check, growth >= 10%? `COc1ccc(/C=N/NC(=O)c2c(N)nn(C)c2Nc2ccccc2)cc1`
RESULT: met

QUERY: For this compound, is measured growth 10% or higher? `N#C/C(=C\c1ccc(-c2ccc(Cl)c(Cl)c2)o1)C(=O)Nc1ncc(Cc2ccc(Cl)cc2)s1`
RESULT: met

QUERY: Decide: is the reported value of growth for NC1C2CCC1CN(c1cnc(C(=O)Nc3cc(F)cc4cccnc34)cn1)C2 (configuration not stated) equal to or greater than 10%?
RESULT: not met

QUERY: State whether the measured growth reaches 10%, counting equality as reaching it, for `CCOC(=O)c1ccccc1NC1=C(Cl)C(=O)c2nc(C)ccc2C1=O`
RESULT: met

QUERY: Decide: is the reported value of growth for `O=C1/C(=C/c2cc(F)cc(F)c2)Cc2cc3c(cc21)OCO3` equal to or greater than 10%?
RESULT: met

QUERY: Does the reported growth for `C#CCN(C)CCCOc1ccc(NC(=O)CCCCCCC(=O)NO)cc1Cl` fall at or above the 10% mark?
RESULT: met

QUERY: Reported growth at or above 10%? `O=C(CCCCCCNC(=O)C(O)(O)C(F)(F)F)Nc1ccc(Br)cc1`
RESULT: met

QUERY: Reported growth at or above 10%? `C#C[C@]1(O)CC[C@H]2[C@@H]3CC=C4c5sc(Nc6cc(C)cc(C)c6)nc5CC[C@]4(C)[C@H]3CC[C@@]21C`
RESULT: not met
